Each recorded value in this set is attributed to ChEMBL document CHEMBL3414470.

Tested on: Brugia malayi
measurement.protocol: Antifilarial activity against Brugia malayi adult worm assessed as reduction in motility at 1.25 uM after 5 days by MTT dye reduction assay
Type: functional
experimental.context: 120 h
Classification field: enter condition met for inhibition at 1.25 µM values not below 50%, condition not met for values below it.

CN1CCN(CC(O)COc2cc(=O)oc3ccccc23)CC1 (stereo unspecified): condition not met

Problem: Tell me whether inhibition at 1.25 µM is at least 50% here: CCCCCCCCCCCCNCC(O)COc1cc(=O)oc2ccccc12 (stereo unspecified)
Result: condition met

Problem: Hi team, for Cc1ccc(NCC(O)COc2cc(=O)oc3ccccc23)cc1 (stereo unspecified) , is the recorded inhibition at 1.25 µM at or above 50%?
Result: condition not met

Problem: Tell me whether inhibition at 1.25 µM is at least 50% here: O=c1cc(OCC(O)CNC2CCCCC2)c2ccccc2o1 (stereo unspecified)
Result: condition not met

Problem: Is inhibition at 1.25 µM at least 50%? Consider O=c1cc(OCC(O)CNC2CC2)c2ccccc2o1 (stereo unspecified)
Result: condition not met

Problem: Entry CCCCNCC(O)COc1cc(=O)oc2ccccc12 (stereo unspecified) : is its inhibition at 1.25 µM no less than 50%?
Result: condition met

---

System: Brugia malayi
measurement.protocol: Antifilarial activity against Brugia malayi microfilaria assessed as reduction in motility after 5 days by MTT dye reduction assay
Format: functional, organism-based
experimental.context: Brugia malayi, 120 h
measured.parameter: log10(IC50) (log10 of the value in nM)
Recorded IC50 (log10, nM)

Before answering, review these 2 worked examples.
CN1CCN(CC(O)COc2cc(=O)oc3ccccc23)CC1 (configuration not stated): 2.45
O=c1cc(OCC(O)CNC2CC2)c2ccccc2o1 (configuration not stated): 2.58

Entry CCCCCCCCCCCCNCC(O)COc1cc(=O)oc2ccccc12 (configuration not stated) , Brugia malayi data, log10(IC50) value: 0.75

log10(IC50) value, target or system Brugia malayi, for Cc1ccc(NCC(O)COc2cc(=O)oc3ccccc23)cc1 (configuration not stated) : 2.26

Brugia malayi log10(IC50) of CCCCNCC(O)COc1cc(=O)oc2ccccc12 (configuration not stated) is 2.63

Fill in: Brugia malayi log10(IC50) for CCCCCCCC/C=C/CCCCCCCCNCC(O)COc1cc(=O)oc2ccccc12 (configuration not stated) = 1.11

Entry O=c1cc(OCC(O)CNC2CCCCC2)c2ccccc2o1 (configuration not stated) under Brugia malayi had log10(IC50) of 2.41

---

Test system: Brugia malayi
measurement.protocol: Antifilarial activity against Brugia malayi microfilaria assessed as reduction in motility at 0.312 uM after 5 days by MTT dye reduction assay
Assay type: functional
experimental.context: 120 h
measured.parameter: inhibition at 0.312 µM (%)
Provide the reading as a plain figure in %.

CCCCNCC(O)COc1cc(=O)oc2ccccc12 (stereo unspecified): 1
O=c1cc(OCC(O)CNC2CCCCC2)c2ccccc2o1 (stereo unspecified): 50
Cc1ccc(NCC(O)COc2cc(=O)oc3ccccc23)cc1 (stereo unspecified): 75
CCCCCCCCCCCCNCC(O)COc1cc(=O)oc2ccccc12 (stereo unspecified): 75
CCCCCCCC/C=C/CCCCCCCCNCC(O)COc1cc(=O)oc2ccccc12 (stereo unspecified): 100

Here is the next item to consider.
So, CN1CCN(CC(O)COc2cc(=O)oc3ccccc23)CC1 (stereo unspecified) ? Its inhibition at 0.312 µM was 75

---

System: Brugia malayi
measurement.protocol: Antifilarial activity against Brugia malayi adult worm assessed as reduction in motility at 0.312 uM after 5 days by MTT dye reduction assay
Assay type: functional
experimental.context: 120 h
measured.parameter: inhibition at 0.312 µM (%)
Quick reminder: number only, in %, skip the unit.

Examples with answers:
O=c1cc(OCC(O)CNC2CCCCC2)c2ccccc2o1 (stereo unspecified): 16.2
CCCCCCCC/C=C/CCCCCCCCNCC(O)COc1cc(=O)oc2ccccc12 (stereo unspecified): 90.4
CCCCNCC(O)COc1cc(=O)oc2ccccc12 (stereo unspecified): 46.9
CCCCCCCCCCCCNCC(O)COc1cc(=O)oc2ccccc12 (stereo unspecified): 90.8
Cc1ccc(NCC(O)COc2cc(=O)oc3ccccc23)cc1 (stereo unspecified): 9.6

// next entry
inhibition at 0.312 µM of CN1CCN(CC(O)COc2cc(=O)oc3ccccc23)CC1 (stereo unspecified) , assay on Brugia malayi, is 11.8

---

# Lookup of reported Activity keyed by entry
Tested on: Brugia malayi
measurement.protocol: Antifilarial activity against Brugia malayi adult worm infected in jird model assessed as adulticidal activity at 100 mg/kg, sc after 5 days measured till day 45 relative to control
Format: functional
experimental.context: route subcutaneous
Give a bare numeral; the unit % is implied.

Would you please look over these solved cases?
O=c1cc(OCC(O)CNC2CCCCC2)c2ccccc2o1 (configuration not stated): 66.6
CCN(CC)C(=O)N1CCN(C)CC1 [DIETHYLCARBAMAZINE]: 33.3
CN1CCN(CC(O)COc2cc(=O)oc3ccccc23)CC1 (configuration not stated): 44.4
CCCCCCCC/C=C/CCCCCCCCNCC(O)COc1cc(=O)oc2ccccc12 (configuration not stated): 69.4
CCCCCCCCCCCCNCC(O)COc1cc(=O)oc2ccccc12 (configuration not stated): 74.9

Memo: Cc1ccc(NCC(O)COc2cc(=O)oc3ccccc23)cc1 (configuration not stated) , reported Activity: 24.8

For this compound ( O=c1cc(OCC(O)CNC2CC2)c2ccccc2o1 (configuration not stated) ), measured Activity is 52.8

---

Tested on: Vero
measurement.protocol: Cytotoxicity against African green monkey Vero cells after 72 hrs by resazurin dye-based fluorescence assay
Type: cell-based
experimental.context: chlorocebus sabaeus, vero, 72 h
measured.parameter: CC50 (µM)
Reply with just the number (in µM).

Bench note, Vero: "IVERMECTIN" , CC50 reads 53.1

---

The following compounds are shown together with reported MIC values.
System: Brugia malayi
measurement.protocol: Antifilarial activity against Brugia malayi microfilaria assessed as reduction in motility after 5 days by MTT dye reduction assay
Format: functional, organism-based
experimental.context: Brugia malayi, 120 h
A number alone suffices; assume µM.

O=c1cc(OCC(O)CNC2CC2)c2ccccc2o1 (configuration not stated): 2.5
CCCCNCC(O)COc1cc(=O)oc2ccccc12 (configuration not stated): 2.5
CCCCCCCCCCCCNCC(O)COc1cc(=O)oc2ccccc12 (configuration not stated): 0.625
Cc1ccc(NCC(O)COc2cc(=O)oc3ccccc23)cc1 (configuration not stated): 2.5
CN1CCN(CC(O)COc2cc(=O)oc3ccccc23)CC1 (configuration not stated): 2.5
O=c1cc(OCC(O)CNC2CCCCC2)c2ccccc2o1 (configuration not stated): 2.5

Here is the next item to consider.
According to the records, this compound CCCCCCCC/C=C/CCCCCCCCNCC(O)COc1cc(=O)oc2ccccc12 (configuration not stated) displays MIC of 0.31

---

Tested on: Brugia malayi
measurement.protocol: Antifilarial activity against Brugia malayi adult worm infected in jird model assessed as sterile female at 100 mg/kg, sc after 5 days measured till day 45 relative to control
Type: functional
experimental.context: route subcutaneous
# key: entry, value: Activity
Answer with a number only, understood to be in %.

Field: example entries. Status: answers known.
CN1CCN(CC(O)COc2cc(=O)oc3ccccc23)CC1 (configuration not stated): 0
CCN(CC)C(=O)N1CCN(C)CC1: 0
CCCCCCCC/C=C/CCCCCCCCNCC(O)COc1cc(=O)oc2ccccc12 (configuration not stated): 16.6
O=c1cc(OCC(O)CNC2CCCCC2)c2ccccc2o1 (configuration not stated): 0
Cc1ccc(NCC(O)COc2cc(=O)oc3ccccc23)cc1 (configuration not stated): 0
O=c1cc(OCC(O)CNC2CC2)c2ccccc2o1 (configuration not stated): 0

Read the next record carefully.
Summary line: CCCCCCCCCCCCNCC(O)COc1cc(=O)oc2ccccc12 (configuration not stated) , Brugia malayi, reported Activity = 19.3

---

Test system: Brugia malayi
measurement.protocol: Antifilarial activity against Brugia malayi microfilaria assessed as reduction in motility at 0.625 uM after 5 days by MTT dye reduction assay
Format: functional
experimental.context: 120 h
measured.parameter: inhibition at 0.625 µM (%)
Give just the numeric value; % need not be written.

CCCCCCCCCCCCNCC(O)COc1cc(=O)oc2ccccc12 (stereo unspecified): 75

The molecule CCCCNCC(O)COc1cc(=O)oc2ccccc12 (stereo unspecified) showed inhibition at 0.625 µM equal to 50

Record O=c1cc(OCC(O)CNC2CC2)c2ccccc2o1 (stereo unspecified) , field inhibition at 0.625 µM: 75

For this molecule ( Cc1ccc(NCC(O)COc2cc(=O)oc3ccccc23)cc1 (stereo unspecified) ), measured inhibition at 0.625 µM is 75

The reported inhibition at 0.625 µM of the molecule O=c1cc(OCC(O)CNC2CCCCC2)c2ccccc2o1 (stereo unspecified) was 50

Briefly, inhibition at 0.625 µM measured for CN1CCN(CC(O)COc2cc(=O)oc3ccccc23)CC1 (stereo unspecified) : 75
